Test system: Vero E6 infected with SARS-CoV-2
Assay: inhibition of SARS-CoV-2 cytopathic effect; higher = more antiviral protection, active = above 15
Details: 100 nM; 48 h
reportedEndpoint: inhibition of SARS-CoV-2 cytopathic effect (%)

NC(=O)[C@H]1CCS[C@@H]2C[C@]3(CCCN3C(=O)Cc3ccc(NC(=O)COc4ccc(Cl)cc4Cl)cc3)C(=O)N12 : 1.37
O=C1NC(c2cccc([N+](=O)[O-])c2)=CCN1c1ccccc1O [icilin] : 1.15
CC(C)[C@H]1C(=O)N[C@@H](CCCNC(=N)N)C(=O)NCC(=O)N[C@@H](CC(=O)O)C(=O)N[C@H](Cc2ccccc2)C(=O)N1C [cilengitide] : -4.67
OC(c1ccccc1)C1CCN(CCc2ccccc2)CC1 (stereo not drawn) : -0.64
CCCC(=O)O [sodium-butyrate] : 1.57
CC(=O)Nc1cccc2c1c(Sc1ccc(Cl)cc1)c(C)n2CC(=O)O : -2.21
CSCC1CN(/N=C/c2ccc([N+](=O)[O-])o2)C(=O)O1 (stereo not drawn) [inimur] : 2.9
COc1cc(C(=S)N2CCOCC2)ccc1O [vanitiolide] : -0.6
C[C@@H](Oc1cc(-n2cnc3ccc(CN4CCN(C)CC4)cc32)sc1C(N)=O)c1ccccc1C(F)(F)F : 1.12
NC(=O)c1ccc(F)c2c1C[C@@H](N(C1CCC1)C1CCC1)CO2 [robalzotan] : 1.8
O=c1[nH]nc2c3c(cccc13)N=C(CN1Cc3ccccc3C1)N2 : 0.78
Oc1ccc(C(O)CNCCCCCCNCC(O)c2ccc(O)c(O)c2)cc1O (stereo not drawn) [hexoprenaline] : 2.27
O=C(Nc1ccccc1)N[C@H]1C[C@H](C(=O)O)Nc2cc(Cl)cc(Cl)c21 : 0.61
O=C(O[C@H]1CN2CCC1CC2)N(Cc1cc(F)c(F)c(F)c1)c1cccc(F)c1 [tarafenacin] : 2.28
CC1CCN(CC[C@H]2CCCN2S(=O)(=O)c2cccc(O)c2)CC1 : 2.25
O=C1CNC(=O)CN1 [piperazinedione] : -1.97
C=Cc1c(C)c2cc3nc(c(CC(=O)O)c4[n-]c(cc5nc(cc1[n-]2)C(C)=C5CC)c(C)c4C(=O)O)[C@@H](CCC(=O)O)[C@@H]3C.[Cu+2] [chlorophyllin-copper] : -1.68
COc1cc2c(cc1OC(C)C)[C@H](c1ccc(Cl)cc1)N(c1ccc(N(C)C[C@H]3CC[C@H](N4CCN(C)C(=O)C4)CC3)cc1)C(=O)C2 : 2.45

----------
System: Vero E6 infected with SARS-CoV-2
Test: inhibition of SARS-CoV-2 cytopathic effect; higher = more antiviral protection, active = above 15
Conditions: 1 nM; 48 h
We begin with a simple list: items and their reported inhibition of SARS-CoV-2 cytopathic effect.
reportedEndpoint: inhibition of SARS-CoV-2 cytopathic effect (%)

COC(=O)C[C@](O)(CCC(C)(C)O)C(=O)O[C@@H]1C(OC)=C[C@]23CCCN2CCc2cc4c(cc2[C@H]13)OCO4 [harringtonine] : 1.51
CCN(CC)CCCC(C)Nc1c2ccc(Cl)cc2nc2ccc(OC)cc12 (stereo not drawn) [mepacrine] : 3.59
Cc1c(C)c2c(c(C)c1O)CCC(C)(C)O2 : 0.77
CC(C)Cn1cnc2c(N)nc3ccccc3c21 [imiquimod] : 1.22
COC(=O)C[C@](O)(CCCC(C)(C)O)C(=O)O[C@@H]1C(OC)=C[C@]23CCCN2CCc2cc4c(cc2[C@H]13)OCO4 [homoharringtonine] : 1.04
CN1CCN(c2ccc(C(=O)Nc3n[nH]c4ccc(Cc5cc(F)cc(F)c5)cc34)c(NC3CCOCC3)c2)CC1 [entrectinib] : 4
C[C@@H]1NC(C)(C)CO[C@@]1(O)c1cccc(Cl)c1 [radafaxine] : -2.6
Cc1ccc(S(=O)(=O)n2c(N)nc3ccccc32)cc1 : -0.51
CCN(CC)CCOc1ccc(/C(=C(\Cl)c2ccccc2)c2ccccc2)cc1 [clomifene] : 0.1
COc1cc(N)cn[n+]1-c1ccccc1 [amezinium] : -1.03
CCCCNc1ccc(C(=O)OCCN(C)C)cc1 [tetracaine] : 2.75
COCC(=O)Nc1c(I)c(C(=O)NCC(O)CO)c(I)c(C(=O)N(C)CC(O)CO)c1I (stereo not drawn) [iopromide] : -2.42
COc1cc2nccc(Oc3ccc(NC(=O)C4(C(=O)Nc5ccc(F)cc5)CC4)cc3)c2cc1OC [cabozantinib] : 1.77
CC#C[C@]1(O)CC[C@H]2[C@@H]3CCC4=CC(=O)CCC4=C3[C@@H](c3ccc(N(C)C)cc3)C[C@@]21C [mifepristone] : -1.56
Cc1cc(S(=O)(=O)O)c2c(C)ccc(C(C)C)cc1-2 [sodium-gualenate] : -10.1
O=C[C@H](O)[C@@H](O)[C@H](O)CO [xylose] : 2.36
C[C@@H](N)[C@@H](O)c1ccccc1 [1S,2R-phenylpropanolamine] : -1.52
Nc1ccn([C@H]2C[C@H](O)[C@@H](CO)O2)c(=O)n1 [torcitabine] : -1.42

----------
System: Vero E6 infected with SARS-CoV-2
Assay: morphology score (similarity to uninfected cells); higher = more like uninfected cells
Settings: 24 h
reportedEndpoint: morphology score

O=C(O)[C@]1(Cc2cccc(Nc3nccs3)n2)CC[C@@H](Oc2cccc(Cl)c2F)CC1 (0.833333 µM) : 0.175
Cc1ccccc1CN1C(=O)C2=C(CCN(Cc3ccccc3)C2)N2CCN=C12 (0.833333 µM) : -0.16
CCN(CC)CCN[C@@H](C(=O)OCCC(C)C)c1ccccc1 [camylofine-chlorhydrate] (10 µM) : 0.18
Cc1c2oc3c(C)ccc(C(=O)N[C@@H]4C(=O)N[C@@H](C(C)C)C(=O)N5CCC[C@H]5C(=O)N(C)CC(=O)N(C)[C@@H](C(C)C)C(=O)O[C@@H]4C)c3nc-2c(C(=O)N[C@@H]2C(=O)N[C@@H](C(C)C)C(=O)N3CCC[C@H]3C(=O)N(C)CC(=O)N(C)[C@@H](C(C)C)C(=O)O[C@@H]2C)c(N)c1=O [actinomycin-d] (0.833333 µM) : 0.164
Cc1c(CN2CCN(C(=O)[C@H](C)O)CC2)sc2c(N3CCOCC3)nc(-c3cnc(N)nc3)nc12 (10 µM) : -0.0562
CO[C@H]1[C@H](O)[C@@H](O)[C@@H](O)[C@H](O)[C@@H]1O [pinitol] (10 µM) : -0.0343
COC(c1ccccc1)(c1ccccc1)[C@H](Oc1nc(C)cc(C)n1)C(=O)O [ambrisentan] (10 µM) : -0.0233
Clc1ccc(COC(Cn2ccnc2)c2ccc(Cl)cc2Cl)c(Cl)c1 (centres undefined) [miconazole] (10 µM) : -0.274
Nc1ccc(/N=N/c2ccccc2)c(N)n1 [phenazopyridine] (10 µM) : 0.34
CSc1ccccc1Nc1nc(N2CCNCC2)nc2c(NCC3CC3)ncnc12 (0.833333 µM) : 0.166
CC(C)N(C[C@H]1O[C@@H](n2cnc3c(N)ncnc32)[C@H](O)[C@@H]1O)[C@H]1C[C@@H](CCc2nc3cc(C(C)(C)C)ccc3[nH]2)C1 (10 µM) : 0.122
CCOC(=O)c1ccccc1OC(=O)CCCCCCCC(=O)Oc1ccccc1C(=O)OCC (10 µM) : 0.166
CC(=O)N[C@H]1[C@@H](O)[C@H](O)[C@@H](CO)O[C@@H]1O [N-acetylmannosamine] (10 µM) : 0.18
O=C(O)C(F)(F)C(F)(F)C(F)(F)C(F)(F)C(F)(F)C(F)(F)C(F)(F)F [ammonium-perfluorocaprylate] (10 µM) : -0.0312

----------
We begin with a simple list: items and their reported inhibition of SARS-CoV-2 cytopathic effect.
Tested on: Vero E6 infected with SARS-CoV-2
Test: inhibition of SARS-CoV-2 cytopathic effect; higher = more antiviral protection, active = above 15
Conditions: 833.33 nM; 48 h
reportedEndpoint: inhibition of SARS-CoV-2 cytopathic effect

CC[C@H](C)C(=O)O[C@H]1C[C@@H](C)C=C2C=C[C@H](C)[C@H](CC[C@@H]3C[C@@H](O)CC(=O)O3)[C@H]21 : 1.16% (inactive)
CN(CC(=O)O)C(=N)N : -1.57% (inactive)
CCN(CC)CCOCCOC(=O)C1(c2ccccc2)CCCC1 : 1.39% (inactive)
COc1ccc2cc(-c3nc(-c4ccc([S+](C)[O-])cc4)[nH]c3-c3ccncc3)ccc2c1 (configuration not stated) : 1.97% (inactive)
O=C(O)c1ccc2c(c1)C(=O)N(c1cccc(Oc3ccc([N+](=O)[O-])cc3)c1)C2=O : 1.36% (inactive)
CN1CCN(C2=Cc3ccccc3Oc3ccc(Cl)cc32)CC1 : -1.6% (inactive)
CCOc1ccc(C[C@H]2NC(=O)CCSSC[C@@H](C(=O)N3CCC[C@H]3C(=O)N[C@@H](CCCN)C(=O)NCC(N)=O)NC(=O)[C@H](CC(N)=O)NC(=O)[C@H]([C@@H](C)O)NC(=O)[C@H]([C@@H](C)CC)NC2=O)cc1 : -0.16% (inactive)
